Biological target: Sushi domains (SD1/2) protein
Assay: Fluorescence polarization (FP) competition assay with AJAP-1probe, calculated Ki
Type: binding
Conditions: Table 9, Ala-, D-amino acids and N-methylation scans of PIANPWT; read-out: Ki (nM) mean ± SEM
Non-standard residues stand in square brackets, D forms with d. Residues, ends and D or L forms follow the SMILES beside them. NMeV = CN[C@H](C(=O)O)C(C)C; Sar = CNCC(=O)O
endpoint_label: Ki (nM)
Just the number in nM, nothing appended.

compound	endpoint_label	observed
CC[C@H](C)[C@H](NC(=O)[C@H](C)NC(=O)[C@H](Cc1c[nH]c2ccccc12)NC(=O)[C@@H]1CCCN1C(C)=O)C(=O)N[C@H](C(=O)N[C@@H](Cc1c[nH]c2ccccc12)C(=O)NCC(=O)N(C)CC(=O)N[C@H](C(=O)N[C@H](C(=O)N[C@@H](CO)C(=O)N[C@@H](CCCNC(=N)N)C(=O)N[C@@H](CCC(=O)O)C(=O)N[C@@H](CC(=O)O)C(N)=O)C(C)C)[C@@H](C)O)C(C)C [PWAIVWG(N-Me-G)TVSRED] (Ac-PWAIVWG[Sar]TVSRED-NH2)	Ki	525

q: // lookup Ki for CC[C@H](C)[C@H](NC(=O)[C@H](C)NC(=O)[C@H](Cc1c[nH]c2ccccc12)NC(=O)[C@@H]1CCCN1C(C)=O)C(=O)N[C@H](C(=O)N[C@@H](Cc1c[nH]c2ccccc12)C(=O)NCC(=O)N1CCC[C@H]1C(=O)N[C@H](C(=O)N(C)[C@H](C(=O)N[C@@H](CO)C(=O)N[C@@H](CCCNC(=N)N)C(=O)N[C@@H](CCC(=O)O)C(=O)N[C@@H](CC(=O)O)C(N)=O)C(C)C)[C@@H](C)O)C(C)C (Ac-PWAIVWGPT[NMeV]SRED-NH2)
a: 1780

q: // lookup Ki for CC[C@H](C)[C@H](NC(=O)[C@H](C)NC(=O)[C@H](Cc1c[nH]c2ccccc12)NC(=O)[C@@H]1CCCN1C(C)=O)C(=O)N[C@H](C(=O)N[C@@H](Cc1c[nH]c2ccccc12)C(=O)NCC(=O)N1CCC[C@H]1C(=O)N[C@H](C(=O)N[C@@H](C)C(=O)N[C@@H](CO)C(=O)N[C@@H](CCCNC(=N)N)C(=O)N[C@@H](CCC(=O)O)C(=O)N[C@@H](CC(=O)O)C(N)=O)[C@@H](C)O)C(C)C [PWAIVWGPTASRED] (Ac-PWAIVWGPTASRED-NH2)
a: 318

q: // lookup Ki for CC[C@H](C)[C@H](NC(=O)[C@H](C)NC(=O)[C@H](Cc1c[nH]c2ccccc12)NC(=O)[C@@H]1CCCN1C(C)=O)C(=O)N[C@H](C(=O)N[C@@H](Cc1c[nH]c2ccccc12)C(=O)NCC(=O)N1CCC[C@H]1C(=O)N[C@@H](C)C(=O)N[C@H](C(=O)N[C@@H](CO)C(=O)N[C@@H](CCCNC(=N)N)C(=O)N[C@@H](CCC(=O)O)C(=O)N[C@@H](CC(=O)O)C(N)=O)C(C)C)C(C)C [PWAIVWGPAVSRED] (Ac-PWAIVWGPAVSRED-NH2)
a: 1030

* * *

Each record here notes measured Ki.
Target: Sushi domains (SD1/2) protein
Test: Fluorescence polarization (FP) competition assay with AJAP-1probe, calculated Ki
Type: binding
Conditions: Table 5, elongation and truncation scan of AJAP-1 binding epitope; read-out: Ki (nM) mean ± SEM
Residues, ends and D or L forms follow the SMILES beside them.
Answer with the value and then the unit.

// worked examples, Ki included
molecule	Ki
CC[C@H](C)[C@H](NC(=O)[C@H](Cc1ccccc1)NC(=O)[C@H](CCC(=O)O)NC(=O)[C@@H](NC(=O)[C@H](CCC(=O)O)NC(=O)[C@@H](NC(C)=O)[C@@H](C)O)[C@@H](C)O)C(=O)N[C@@H](C)C(=O)N[C@@H](Cc1c[nH]c2ccccc12)C(=O)NCC(=O)N1CCC[C@H]1C(=O)N[C@H](C(=O)NCC(=O)N[C@@H](CC(=O)O)C(=O)N[C@@H](CCC(=O)O)C(=O)N[C@@H](CC(=O)O)C(=O)N[C@@H](C)C(N)=O)[C@@H](C)O (Ac-TETEFIAWGPTGDEDA-NH2)	36 nM
CC[C@H](C)[C@H](NC(=O)[C@H](Cc1ccccc1)NC(=O)[C@H](CCC(=O)O)NC(=O)[C@@H](NC(=O)[C@H](CCC(=O)O)NC(=O)[C@@H](NC(C)=O)[C@@H](C)O)[C@@H](C)O)C(=O)N[C@@H](C)C(=O)N[C@@H](Cc1c[nH]c2ccccc12)C(=O)NCC(=O)N1CCC[C@H]1C(=O)N[C@H](C(=O)NCC(=O)N[C@@H](CC(=O)O)C(=O)N[C@@H](CCC(=O)O)C(N)=O)[C@@H](C)O (Ac-TETEFIAWGPTGDE-NH2)	69 nM

q: // lookup Ki for CC[C@H](C)[C@H](NC(=O)[C@H](Cc1ccccc1)NC(=O)[C@H](CCC(=O)O)NC(=O)[C@@H](NC(=O)[C@H](CCC(=O)O)NC(=O)[C@@H](NC(=O)[C@@H](NC(C)=O)[C@@H](C)O)[C@@H](C)O)[C@@H](C)O)C(=O)N[C@@H](C)C(=O)N[C@@H](Cc1c[nH]c2ccccc12)C(=O)NCC(=O)N1CCC[C@H]1C(=O)N[C@H](C(=O)NCC(=O)N[C@@H](CC(=O)O)C(=O)N[C@@H](CCC(=O)O)C(=O)N[C@@H](CC(=O)O)C(N)=O)[C@@H](C)O (Ac-TTETEFIAWGPTGDED-NH2)
a: 32 nM

q: // lookup Ki for CC[C@H](C)[C@H](NC(=O)[C@H](Cc1ccccc1)NC(C)=O)C(=O)N[C@@H](C)C(=O)N[C@@H](Cc1c[nH]c2ccccc12)C(=O)NCC(=O)N1CCC[C@H]1C(=O)N[C@H](C(=O)NCC(=O)N[C@@H](CC(=O)O)C(=O)N[C@@H](CCC(=O)O)C(=O)N[C@@H](CC(=O)O)C(N)=O)[C@@H](C)O [FIAWGPTGDED] (Ac-FIAWGPTGDED-NH2)
a: 118 nM

q: // lookup Ki for CC[C@H](C)[C@H](NC(=O)[C@H](Cc1ccccc1)NC(=O)[C@H](CCC(=O)O)NC(=O)[C@@H](NC(C)=O)[C@@H](C)O)C(=O)N[C@@H](C)C(=O)N[C@@H](Cc1c[nH]c2ccccc12)C(=O)NCC(=O)N1CCC[C@H]1C(=O)N[C@H](C(=O)NCC(=O)N[C@@H](CC(=O)O)C(=O)N[C@@H](CCC(=O)O)C(=O)N[C@@H](CC(=O)O)C(N)=O)[C@@H](C)O [TEFIAWGPTGDED] (Ac-TEFIAWGPTGDED-NH2)
a: 102 nM

q: // lookup Ki for CC[C@H](C)[C@H](NC(=O)[C@H](Cc1ccccc1)NC(=O)[C@H](CCC(=O)O)NC(=O)[C@@H](NC(=O)[C@H](CCC(=O)O)NC(=O)[C@@H](NC(C)=O)[C@@H](C)O)[C@@H](C)O)C(=O)N[C@@H](C)C(=O)N[C@@H](Cc1c[nH]c2ccccc12)C(N)=O (Ac-TETEFIAW-NH2)
a: 1010 nM

q: // lookup Ki for CC[C@H](C)[C@H](NC(C)=O)C(=O)N[C@@H](C)C(=O)N[C@@H](Cc1c[nH]c2ccccc12)C(=O)NCC(=O)N1CCC[C@H]1C(=O)N[C@H](C(=O)NCC(=O)N[C@@H](CC(=O)O)C(=O)N[C@@H](CCC(=O)O)C(=O)N[C@@H](CC(=O)O)C(N)=O)[C@@H](C)O [IAWGPTGDED] (Ac-IAWGPTGDED-NH2)
a: 38000 nM

q: // lookup Ki for CC[C@H](C)[C@H](NC(=O)[C@H](Cc1ccccc1)NC(=O)[C@H](CCC(=O)O)NC(=O)[C@@H](NC(=O)[C@H](CCC(=O)O)NC(=O)[C@@H](NC(=O)[C@@H](NC(=O)[C@@H]1CCCN1C(C)=O)[C@@H](C)O)[C@@H](C)O)[C@@H](C)O)C(=O)N[C@@H](C)C(=O)N[C@@H](Cc1c[nH]c2ccccc12)C(=O)NCC(=O)N1CCC[C@H]1C(=O)N[C@H](C(=O)NCC(=O)N[C@@H](CC(=O)O)C(=O)N[C@@H](CCC(=O)O)C(=O)N[C@@H](CC(=O)O)C(N)=O)[C@@H](C)O (Ac-PTTETEFIAWGPTGDED-NH2)
a: 30 nM

q: // lookup Ki for CC[C@H](C)[C@H](NC(=O)[C@H](Cc1ccccc1)NC(=O)[C@H](CCC(=O)O)NC(=O)[C@@H](NC(=O)[C@H](CCC(=O)O)NC(=O)[C@@H](NC(C)=O)[C@@H](C)O)[C@@H](C)O)C(=O)N[C@@H](C)C(=O)N[C@@H](Cc1c[nH]c2ccccc12)C(=O)NCC(=O)N1CCC[C@H]1C(=O)N[C@H](C(N)=O)[C@@H](C)O (Ac-TETEFIAWGPT-NH2)
a: 236 nM

Taken from patent US20260193293A1.
